System: Raji (Burkitt's) lymphoma cells
assayRemarks: MTT assay for 4-day viability of Raji (Burkitt's) lymphoma cells
Format: cell-based
appliedConditions: Homo sapiens, 96 h, Raji (Burkitt's) lymphoma cells highly expressing MCT1, estimated EC50 given as bin, read-out: approximate potency (EC50)
pEC50: −log10 of the molar value.
Collected pEC50 values appear next to each entry.

{"molecule": "CC(C)c1cc(=O)c2c(OCCCCO)cc(OCc3cccc4ccccc34)cc2o1 [Example 5]", "pEC50": "6.00 to 7.00"}
{"molecule": "CC(C)c1cc(=O)c2c(OCc3ccccc3CO)cc(OCc3ccccn3)cc2o1 [Example 13]", "pEC50": "≥ 7.00"}
{"molecule": "O=c1cc(-c2ccccc2)oc2cc(OCc3cccc4ccccc34)cc(OCCCO)c12 [Example 28]", "pEC50": "5.00 to 6.00"}
{"molecule": "CC(C)c1cc(=O)c2c(OCc3ccccc3CO)cc(OCc3ccc4ccccc4n3)cc2o1 [Example 20]", "pEC50": "≥ 7.00"}
{"molecule": "CC(C)c1cc(=O)c2c(OCc3ccccc3CO)cc(OCc3cncc(C(F)(F)F)c3)cc2o1 [Example 16]", "pEC50": "≥ 7.00"}
{"molecule": "CC(C)c1cc(=O)c2c(-c3cc(CO)ccc3Cl)cc(OCc3cccc4ccccc34)cc2o1 [Example 39]", "pEC50": "5.00 to 6.00"}
{"molecule": "CC(C)c1cc(=O)c2c(OCc3ccccc3CO)cc(Oc3ccncc3C(F)(F)F)cc2o1 [Example 17]", "pEC50": "≥ 7.00"}
{"molecule": "CC(C)c1cc(=O)c2c(Nc3cccc(CO)c3)cc(OCc3cccc4ccccc34)cc2o1 [Example 49]", "pEC50": "≤ 5.00"}
{"molecule": "CC(C)c1cc(=O)c2c(OCCCO)cc(OCc3ccnc4ccccc34)cc2o1 [Example 6]", "pEC50": "6.00 to 7.00"}
{"molecule": "CC(C)c1cc(=O)c2c(-c3cc(CO)ccc3F)cc(OCc3cccc4ccccc34)cc2o1 [Example 40]", "pEC50": "5.00 to 6.00"}
{"molecule": "CC(C)c1cc(=O)c2c(OCc3ccccc3CO)cc(OCc3ccc4ncccc4c3)cc2o1 [Example 21]", "pEC50": "6.00 to 7.00"}
{"molecule": "CC(C)c1cc(=O)c2c(OCc3ccccc3CO)cc(OCc3cccc4cccnc34)cc2o1 [Example 19]", "pEC50": "≥ 7.00"}
{"molecule": "CC(C)c1cc(=O)c2c(OCCCO)cc(OCc3cccc4ccccc34)cc2o1 [Example 7]", "pEC50": "6.00 to 7.00"}
